This section presents compounds with their documented pIC50 values.
- Target: Human Factor XIIa (Homo sapiens, UniProt P00748)
- Construct: Human Factor XIIa (Enzyme Research Laboratories) was incubated; purchased Enzyme Research Laboratories
- Sequence (P00748 373-615 limits assumed): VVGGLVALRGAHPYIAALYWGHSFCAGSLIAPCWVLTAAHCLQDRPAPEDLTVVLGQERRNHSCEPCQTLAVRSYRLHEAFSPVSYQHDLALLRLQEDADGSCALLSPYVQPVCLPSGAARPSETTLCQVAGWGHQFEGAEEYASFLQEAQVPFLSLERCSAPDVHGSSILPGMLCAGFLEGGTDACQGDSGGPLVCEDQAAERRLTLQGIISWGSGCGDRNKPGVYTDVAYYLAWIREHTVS
- Sequence (P00748 20-372 partner limits assumed): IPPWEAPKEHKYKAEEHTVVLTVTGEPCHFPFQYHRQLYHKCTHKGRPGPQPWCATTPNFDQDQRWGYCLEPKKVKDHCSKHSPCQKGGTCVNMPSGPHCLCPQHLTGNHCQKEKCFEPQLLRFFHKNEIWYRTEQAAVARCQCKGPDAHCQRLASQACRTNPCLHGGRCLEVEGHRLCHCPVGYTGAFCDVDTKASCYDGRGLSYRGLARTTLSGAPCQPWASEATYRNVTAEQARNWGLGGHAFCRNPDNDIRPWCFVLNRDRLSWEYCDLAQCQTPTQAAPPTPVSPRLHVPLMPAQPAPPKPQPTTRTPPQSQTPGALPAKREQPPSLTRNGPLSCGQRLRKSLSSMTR
- Measurement Description: Determination of FXIIa inhibitory activity in vitro (fluorogenic substrate H-DPro-Phe-Arg-AFC)
- Type: biochemical
- Experimental Context: 25° C., residual enzyme activity (initial rate)
pIC50: −log10 of the molar value.

Solved entries:
In [3]: df
Out[3]:
                                        mol  measure  reported_value
0  CCN1CCC(Cn2nc(Cl)cc2C(=O)NCc2ccc3c(N)nccc3c2)CC1    pIC50    5.00 to 5.52
1  Nc1nccc2cc(CNC(=O)c3cc(Cl)c(COCCn4ccnc4)s3)ccc12    pIC50    5.00 to 5.52
2  Cc1cc(C(=O)NCc2ccc3c(N)nccc3c2)sc1CN1CC(Oc2ccncc2)C1    pIC50    4.40 to 5.00
3      Cc1sc(C(=O)NCc2ccc3c(N)nccc3c2)cc1Br    pIC50    5.00 to 5.52
4  CN1CCC(CCc2csc(C(=O)NCc3ccc4c(N)nccc4c3)c2)CC1    pIC50    5.00 to 5.52

stdin: Entry "Cc1cc(C(=O)NCc2ccc3c(N)nccc3c2)sc1CN1CCN(c2cnn(C)c2)CC1" : reported pIC50 = ?
stdout: 4.40 to 5.00

stdin: Entry "Nc1nccc2cc(CNC(=O)c3cc(Cl)c(CN4CCN(Cc5cccnc5)CC4)s3)ccc12" : reported pIC50 = ?
stdout: 4.40 to 5.00

stdin: Entry "Nc1nccc2cc(CNC(=O)c3cc(Cl)c(CNCc4ccccn4)s3)ccc12" : reported pIC50 = ?
stdout: 4.40 to 5.00

stdin: Entry "CCOc1ccc(Cn2nccc2C(=O)NCc2ccc3c(N)nccc3c2)cc1" : reported pIC50 = ?
stdout: 4.40 to 5.00

stdin: Entry "Cn1cnc2cc(OCc3sc(C(=O)NCc4ccc5c(N)nccc5c4)cc3Cl)ccc21" : reported pIC50 = ?
stdout: 4.40 to 5.00

stdin: Entry "CC(C)N1CCN(CCCNCc2sc(C(=O)NCc3ccc4c(N)nccc4c3)cc2Cl)CC1" : reported pIC50 = ?
stdout: 5.00 to 5.52

stdin: Entry "CN1CCC(Cc2sc(C(=O)NCc3ccc4c(N)nccc4c3)cc2Cl)CC1" : reported pIC50 = ?
stdout: 5.00 to 5.52
